Target Desc: TAOK2 (human) (UniProt Q9UL54)
Sequence (Q9UL54 whole entry, looked up): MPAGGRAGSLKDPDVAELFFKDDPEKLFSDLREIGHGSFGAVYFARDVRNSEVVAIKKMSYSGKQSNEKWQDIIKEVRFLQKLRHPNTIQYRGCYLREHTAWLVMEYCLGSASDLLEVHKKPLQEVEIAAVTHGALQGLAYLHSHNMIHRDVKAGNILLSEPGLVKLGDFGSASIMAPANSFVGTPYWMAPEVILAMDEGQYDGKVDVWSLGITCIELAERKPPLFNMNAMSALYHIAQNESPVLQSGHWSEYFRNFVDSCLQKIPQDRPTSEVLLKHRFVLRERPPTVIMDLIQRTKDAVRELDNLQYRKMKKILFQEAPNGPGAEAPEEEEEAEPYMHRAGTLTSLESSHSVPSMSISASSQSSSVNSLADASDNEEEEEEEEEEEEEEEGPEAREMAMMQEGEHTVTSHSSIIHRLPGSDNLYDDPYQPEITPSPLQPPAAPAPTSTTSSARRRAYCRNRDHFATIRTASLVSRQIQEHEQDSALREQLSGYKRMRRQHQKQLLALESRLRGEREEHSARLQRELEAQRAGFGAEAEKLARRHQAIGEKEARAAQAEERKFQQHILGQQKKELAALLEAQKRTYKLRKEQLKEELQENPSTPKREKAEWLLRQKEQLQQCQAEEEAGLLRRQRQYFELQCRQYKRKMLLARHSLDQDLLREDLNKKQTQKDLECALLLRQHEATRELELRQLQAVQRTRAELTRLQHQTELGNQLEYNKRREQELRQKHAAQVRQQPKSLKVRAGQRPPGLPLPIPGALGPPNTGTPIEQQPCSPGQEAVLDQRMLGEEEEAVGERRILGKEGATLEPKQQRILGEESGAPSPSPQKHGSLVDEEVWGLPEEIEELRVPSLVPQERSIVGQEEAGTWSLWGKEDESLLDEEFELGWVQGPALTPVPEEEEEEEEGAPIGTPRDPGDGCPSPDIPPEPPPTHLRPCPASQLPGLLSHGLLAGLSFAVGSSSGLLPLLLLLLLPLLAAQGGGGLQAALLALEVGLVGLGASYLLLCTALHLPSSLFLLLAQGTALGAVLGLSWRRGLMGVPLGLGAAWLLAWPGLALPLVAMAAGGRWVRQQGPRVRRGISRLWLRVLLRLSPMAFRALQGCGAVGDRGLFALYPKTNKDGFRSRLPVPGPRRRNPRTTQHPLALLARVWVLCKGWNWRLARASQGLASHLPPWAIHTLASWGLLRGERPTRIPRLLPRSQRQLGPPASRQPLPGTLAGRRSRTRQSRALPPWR
Procedure Text: KINOMEscan competition binding
Run Parameters: compound 10.0 µM
Overview of recorded kinase still bound, per cent of control for various compounds
Measurement Label: kinase still bound, per cent of control (%)

> print(dat)
                                  structure                     target.desc  experimental.result
1  O=C(O)c1ccc(Nc2ncc3c(n2)-c2ccc(Cl)cc2C(c2c(F)cccc2F)=NC3)cc1  TAOK2 (human) (UniProt Q9UL54)                   94
2  O=C1Nc2ccc(I)cc2/C1=C/c1cc(Br)c(O)c(Br)c1  TAOK2 (human) (UniProt Q9UL54)                   71
3  CCCS(=O)(=O)Nc1ccc(F)c(C(=O)c2c[nH]c3ncc(-c4ccc(Cl)cc4)cc23)c1F  TAOK2 (human) (UniProt Q9UL54)                   53
4  Cc1ccc(NC(=O)c2cccc(C(C)(C)C#N)c2)cc1Nc1ccc2ncn(C)c(=O)c2c1  TAOK2 (human) (UniProt Q9UL54)                   72
5  Cc1cc([C@@H](C)Nc2ccccc2C(=O)O)c2nc(N3CCOCC3)cc(=O)n2c1  TAOK2 (human) (UniProt Q9UL54)                   94

All values here come from the kinase profiling compilation of Christmann-Franck et al. (2016).
